system: Hs-578T; experiment: Antiproliferative activity against human Hs 578T cells after 10 days; format: functional, cell-based; settings: 240 h
READOUT: IC50 (µM)
All answers are understood in µM, so give the number only.

Lookup: Give its IC50 value. Item: Cc1cn(CCN2CCN(c3ccccc3-c3cc(C#N)cc(C(=O)NCCCN4CCCC4)c3)CC2)c2ccccc12
Found: 6.14

---

tested on: SK-MEL-28; experiment: Antiproliferative activity against human SK-MEL-28 cells after 10 days; format: functional, cell-based; details: SK-MEL-28, 240 h
READOUT: IC50

Lookup: Report IC50 for O=C(NC1CN(Cc2cnn(Cc3ccccc3)c2)C1)c1cn(C2CC2)nn1 please.
Found: > 10 µM
